- System: SH-4 cells
- ASSAY SUMMARY: Annexin V-FITC/PI flow cytometry assay (apoptosis)
- Assay type: cell-based, human
- CONDITIONS: SH-4, 48 h; 1 6 µM, 1A 260 µM, 1B 260 µM, 1C 40 µM, 1D 8 µM, cisplatin 20 µM
ENDPOINT: Live (viable cells, Annexin V−/PI−, Q4) (%)

1) CCOC(=O)c1cc(-c2ccc(Cl)cc2)n(C(Cc2ccccc2)C(=O)N/N=C/c2c(C)[nH]c(C(=O)OCC)c2C)c1C (stereo not shown) :: 53.4
2) CCOC(=O)c1cc(-c2ccc(Cl)cc2)n(C(Cc2ccccc2)C(=O)N/N=C/c2[nH]c(C)c(C(=O)OCC)c2C)c1C (stereo not shown) :: 44.6
3) CCOC(=O)c1cc(-c2ccc(Cl)cc2)n(C(Cc2ccccc2)C(=O)N/N=C/c2c(C)[nH]c(C)c2C(=O)OCC)c1C (stereo not shown) :: 60.2
4) CCOC(=O)c1cc(-c2ccc(Cl)cc2)n(C(Cc2ccccc2)C(=O)N/N=C/c2[nH]c(C(=O)OCC)c(C)c2C(=O)OCC)c1C (stereo not shown) :: 58.2
